target: Vasopressin V1a receptor (Rattus norvegicus); experiment: Displacement of [3H]vasopressin from vasopressin V1a receptor in rat liver tissue
Sequence (P30560 whole entry): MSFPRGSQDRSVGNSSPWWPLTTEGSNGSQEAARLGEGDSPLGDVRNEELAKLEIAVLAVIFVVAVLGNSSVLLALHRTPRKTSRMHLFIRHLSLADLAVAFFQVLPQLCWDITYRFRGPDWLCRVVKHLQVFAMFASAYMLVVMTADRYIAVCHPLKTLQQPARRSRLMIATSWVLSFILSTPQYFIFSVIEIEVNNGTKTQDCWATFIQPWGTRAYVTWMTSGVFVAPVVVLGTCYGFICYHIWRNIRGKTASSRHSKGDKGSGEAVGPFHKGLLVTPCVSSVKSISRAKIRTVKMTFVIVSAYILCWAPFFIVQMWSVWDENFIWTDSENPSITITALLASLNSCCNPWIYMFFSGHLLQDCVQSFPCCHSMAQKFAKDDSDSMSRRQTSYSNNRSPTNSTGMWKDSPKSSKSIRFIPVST
quantity.name: Ki (µM)
Only the number, expressed in µM, is required.

{"columns": ["structure", "Ki [µM]"],
 "data": [
  ["Cc1ccc(S(=O)(=O)N2CCC3(C=Cc4ccccc43)CC2)cc1", 9.8],
  ["COc1cc(OC2CCN(Cc3ccc[n+]([O-])c3C)CC2)ccc1C(=O)N1CCC(N2C(=O)OCc3ccccc32)CC1", 0.00076],
  ["Cc1ccccc1N1CCN(S(=O)(=O)C[C@]23CC[C@H](C[C@@H]2NC(=O)[C@@H](N)CCS(C)(=O)=O)C3(C)C)CC1", 0.11]
]}

[in] Entry `CC1(C)[C@@H]2CC[C@@]1(CS(=O)(=O)N1CCC3(C=Cc4ccccc43)CC1)[C@@](O)(CC(=O)O)C2` has what Ki?
[out] 26
